The values you see were collected from ChEMBL document CHEMBL1134427.

pKa overview
- TEST NAME: pKa value by using fluorescence emission spectra
- Format: physicochemical
REPORTED METRIC: pKa

- CN(C)c1ccc2c(-c3cc(C(=O)O)ccc3C(=O)O)c3cc(F)c4cc(=O)ccc4c3oc2c1: 7.2
- CN(C)c1ccc2c(-c3cc(C(=O)O)ccc3C(=O)O)c3ccc4c(F)c(=O)ccc4c3oc2c1: 6.4
- CN(C)c1ccc2c(-c3cc(C(=O)O)ccc3C(=O)O)c3ccc4cc(=O)ccc4c3oc2c1: 7.5
